- targetUnderTest: IRAK1 (Homo sapiens)
- Construct: His-TEV-IRAK1 (194-712); His (N); TEV cleavage site (N)
- Sequence (P51617 194-712): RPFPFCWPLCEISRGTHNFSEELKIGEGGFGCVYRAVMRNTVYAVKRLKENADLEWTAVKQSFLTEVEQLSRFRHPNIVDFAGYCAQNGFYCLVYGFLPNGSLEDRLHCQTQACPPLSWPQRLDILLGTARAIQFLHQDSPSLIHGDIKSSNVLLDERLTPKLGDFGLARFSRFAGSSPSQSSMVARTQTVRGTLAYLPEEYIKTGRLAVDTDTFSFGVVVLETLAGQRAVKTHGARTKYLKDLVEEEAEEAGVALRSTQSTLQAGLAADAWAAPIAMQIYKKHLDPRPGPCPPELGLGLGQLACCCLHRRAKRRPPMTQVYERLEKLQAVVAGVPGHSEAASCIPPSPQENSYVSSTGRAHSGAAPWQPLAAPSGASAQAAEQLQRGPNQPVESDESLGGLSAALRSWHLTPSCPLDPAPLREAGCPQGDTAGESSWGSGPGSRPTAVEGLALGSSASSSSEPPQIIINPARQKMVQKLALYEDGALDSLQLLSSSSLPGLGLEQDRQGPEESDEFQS
- experimentalDetails: IRAK1 enzymatic assay (ADP-Glo luminescence)
- measurementParameters: purified human recombinant His-TEV-IRAK1 (194-712)
pIC50: −log10 of the molar value.
The following compounds are shown together with reported pIC50 values.

Consider the reported pIC50 for these compounds:
{"compound": "C[C@@H](CCO)n1/c(=N/C(=O)c2cccc(C(F)F)c2)[nH]c2cc(N3CCOCC3=O)ccc21", "pIC50": "6.00 to 7.00"}
{"compound": "O=C(/N=c1\\[nH]c2cc(-n3ncccc3=O)ccc2n1CCCO)c1cccc(C(F)(F)F)c1", "pIC50": "≥ 7.00"}

Notebook: CC1(C)CCOC(=O)N1c1ccc2[nH]c(=NC(=O)c3cccc(C(F)(F)F)c3)n(CCCO)c2c1 , pIC50 read as 6.00 to 7.00

The reported pIC50 of the compound CC1(C)C(=O)N(c2ccc3c(c2)[nH]/c(=N\C(=O)c2cccc(C(F)F)c2)n3CCCO)CCN1CCO was 6.00 to 7.00

Form field pIC50, entry NC(=O)/C=C/c1cccc(C(=O)/N=c2\[nH]c3cc(N4CCOCC4=O)ccc3n2CCCO)c1 : ≥ 7.00

// O=C(/N=c1\[nH]c2cc(N3CCCOC3=O)ccc2n1CC1CCCCC1)c1cccc(C(F)(F)F)c1 : pIC50 value = < 6.00

Item: O=C(/N=c1\[nH]c2cc(N3CCCNC3=O)ccc2n1CCCO)c1cccc(C(F)F)c1 | pIC50: 6.00 to 7.00

For reference, reported pIC50 for O=C(O)CCCn1/c(=N/C(=O)c2cccc(C(F)(F)F)c2)[nH]c2cc(N3CCCOC3=O)ccc21 stands at < 6.00
